# Species on record: Homo sapiens
# assaySummary: Selectivity ratio of Kinact/Ki for recombinant His6-tagged PAD1 (unknown origin) to Kinact/Ki for recombinant His6-tagged PAD3 (unknown origin)
measureName: Selectivity ratio

// below: answered compounds
| chemSmiles | measureName | numericValue |
| --- | --- | --- |
| CCN1Cc2cccc(C(=O)N[C@@H](CCCNC(=N)CCl)c3nc4ccccc4[nH]3)c2C1=O | Selectivity ratio | 4.3 |
| CCN1Cc2cccc(C(=O)N[C@@H](CCCNC(=N)CF)c3nc4cc(OC)ccc4n3C)c2C1=O | Selectivity ratio | 47 |
| COc1cccc2c1nc([C@H](CCCNC(=N)CF)NC(=O)c1cccc3c1C(=O)N(C1CC1)C3)n2C | Selectivity ratio | 38 |
| COc1cccc2c1nc([C@H](CCCNC(=N)CF)NC(=O)c1cccc3c1C(=O)N(C(C)C)C3)n2C | Selectivity ratio | 32 |
| COc1ccc2[nH]c([C@H](CCCNC(=N)CCl)NC(=O)c3cccc4c3C(=O)NC4)nc2c1 | Selectivity ratio | 7.3 |
| Cn1c([C@H](CCCNC(=N)CF)NC(=O)c2cccc3c2C(=O)NC3)nc2ccccc21 | Selectivity ratio | 25 |

a = COc1cccc2c1nc([C@H](CCCNC(=N)CF)NC(=O)c1cccc3c1C(=O)NC3)n2C
b = CCn1c([C@H](CCCNC(=N)CCl)NC(=O)c2ccccc2C(=O)O)nc2ccccc21
Request: Compare reported Selectivity ratio values for a and b . Which is lower? # reply format: chosen label
Response: b
(b: 4.3, a: 29)

---

# Species: Homo sapiens
# assaySummary: Selectivity ratio of Kinact/Ki for recombinant full length N-terminal GST-tagged human PAD4 expressed in Escherichia coli Rosetta to Kinact/Ki for recombinant His6-tagged PAD3 (unknown origin)
measureName: Selectivity ratio

| chemSmiles | Selectivity ratio |
| --- | --- |
| N=C(CCl)NCCC[C@H](NC(=O)c1cccc2c1C(=O)NC2)c1nc2ccccc2[nH]1 | 2.1 |
| COc1ccc2[nH]c([C@H](CCCNC(=N)CF)NC(=O)c3cccc4c3C(=O)NC4)nc2c1 | 3.5 |
| CCn1c([C@H](CCCNC(=N)CCl)NC(=O)c2ccccc2C(=O)O)nc2ccccc21 | 1.2 |
| COc1cccc2c1nc([C@H](CCCNC(=N)CF)NC(=O)c1cccc3c1C(=O)NC3)n2C | 3.2 |
| CCN1Cc2cccc(C(=O)N[C@@H](CCCNC(=N)CCl)c3nc4ccccc4n3C)c2C1=O | 1.2 |
| COc1cccc2c1nc([C@H](CCCNC(=N)CF)NC(=O)c1cccc3c1C(=O)N(C(C)C)C3)n2C | 2.6 |
| CCN1Cc2cccc(C(=O)N[C@@H](CCCNC(=N)CF)c3nc4cc(OC)ccc4n3C)c2C1=O | 3.8 |
| COc1ccc2[nH]c([C@H](CCCNC(=N)CCl)NC(=O)c3cccc4c3C(=O)NC4)nc2c1 | 2.2 |

P = CC(C)n1c([C@H](CCCNC(=N)CF)NC(=O)c2cccc3c2C(=O)NC3)nc2ccccc21
Q = CCN1Cc2cccc(C(=O)N[C@@H](CCCNC(=N)CCl)c3nc4ccccc4[nH]3)c2C1=O
R = N=C(CF)NCCC[C@H](NC(=O)c1cccc2c1C(=O)NC2)c1nc2ccccc2[nH]1
S = COc1cccc2c1nc([C@H](CCCNC(=N)CF)NC(=O)c1cccc3c1C(=O)N(C1CC1)C3)n2C
Request: Please put the entries in order of rising Selectivity ratio. Labels, ranked as asked.
Response: Q, P, S, R

A = Cn1c([C@H](CCCNC(=N)CCl)NC(=O)c2ccccc2C(=O)O)nc2ccccc21
B = CCn1c([C@H](CCCNC(=N)CF)NC(=O)c2cccc3c2C(=O)NC3)nc2ccccc21
Request: Could you kindly indicate whether A or B has the higher Selectivity ratio value? # reply format: chosen label
Response: B

---

# Species on record: Homo sapiens
# assaySummary: Selectivity ratio of Kinact/Ki for recombinant human PAD2 expressed in Escherichia coli BL21(DE3)pLysS to Kinact/Ki for recombinant His6-tagged PAD3 (unknown origin)
measureName: Selectivity ratio

// below: answered compounds
| chemSmiles | numericValue |
| --- | --- |
| COc1cccc2c1nc([C@H](CCCNC(=N)CF)NC(=O)c1cccc3c1C(=O)NC3)n2C | 47 |
| CCN1Cc2cccc(C(=O)N[C@@H](CCCNC(=N)CCl)c3nc4ccccc4n3C)c2C1=O | 19 |
| CCN1Cc2cccc(C(=O)N[C@@H](CCCNC(=N)CCl)c3nc4c(OC)cccc4n3C)c2C1=O | 5 |
| N=C(CCl)NCCC[C@H](NC(=O)c1cccc2c1C(=O)NC2)c1nc2ccccc2[nH]1 | 2.3 |
| Cn1c([C@H](CCCNC(=N)CCl)NC(=O)c2ccccc2C(=O)O)nc2ccccc21 | 1.9 |
| COc1cccc2c1nc([C@H](CCCNC(=N)CF)NC(=O)c1cccc3c1C(=O)N(C1CC1)C3)n2C | 77 |

a = CCN1Cc2cccc(C(=O)N[C@@H](CCCNC(=N)CF)c3nc4cc(OC)ccc4n3C)c2C1=O
b = CCOc1cccc2c1nc([C@H](CCCNC(=N)CF)NC(=O)c1cccc3c1C(=O)NC3)n2C
Request: Could you kindly indicate whether a or b has the higher Selectivity ratio value? # reply format: chosen label
Response: a

---

# Species on record: Homo sapiens
# assaySummary: Selectivity ratio of Kinact/Ki for recombinant His6-tagged PAD1 (unknown origin) to Kinact/Ki for recombinant His6-tagged PAD3 (unknown origin)
measureName: Selectivity ratio

// below: answered compounds
| chemSmiles | Selectivity ratio |
| --- | --- |
| Cn1c([C@H](CCCNC(=N)CCl)NC(=O)c2ccccc2C(=O)O)nc2ccccc21 | 4.3 |
| COc1cccc2c1nc([C@H](CCCNC(=N)CCl)NC(=O)c1cccc3c1C(=O)NC3)n2C | 3.9 |
| CCN1Cc2cccc(C(=O)N[C@@H](CCCNC(=N)CCl)c3nc4c(OC)cccc4n3C)c2C1=O | 3.9 |

I = CC(C)n1c([C@H](CCCNC(=N)CF)NC(=O)c2cccc3c2C(=O)NC3)nc2ccccc21
II = COc1cccc2c1nc([C@H](CCCNC(=N)CF)NC(=O)c1cccc3c1C(=O)N(C)C3)n2C
Request: Compare reported Selectivity ratio values for I and II . Which is lower? # reply format: chosen label
Response: I
(I: 12, II: 30)

1 = N=C(CCl)NCCC[C@H](NC(=O)c1cccc2c1C(=O)NC2)c1nc2ccccc2[nH]1
2 = COc1ccc2[nH]c([C@H](CCCNC(=N)CF)NC(=O)c3cccc4c3C(=O)NC4)nc2c1
Request: Compare reported Selectivity ratio values for 1 and 2 . Which is lower? # reply format: chosen label
Response: 1

---

Recorded measurements of Activity, one per entry
# targetUnderTest: UniProt:Q9Y2J8
# Sequence (Q9Y2J8 whole entry): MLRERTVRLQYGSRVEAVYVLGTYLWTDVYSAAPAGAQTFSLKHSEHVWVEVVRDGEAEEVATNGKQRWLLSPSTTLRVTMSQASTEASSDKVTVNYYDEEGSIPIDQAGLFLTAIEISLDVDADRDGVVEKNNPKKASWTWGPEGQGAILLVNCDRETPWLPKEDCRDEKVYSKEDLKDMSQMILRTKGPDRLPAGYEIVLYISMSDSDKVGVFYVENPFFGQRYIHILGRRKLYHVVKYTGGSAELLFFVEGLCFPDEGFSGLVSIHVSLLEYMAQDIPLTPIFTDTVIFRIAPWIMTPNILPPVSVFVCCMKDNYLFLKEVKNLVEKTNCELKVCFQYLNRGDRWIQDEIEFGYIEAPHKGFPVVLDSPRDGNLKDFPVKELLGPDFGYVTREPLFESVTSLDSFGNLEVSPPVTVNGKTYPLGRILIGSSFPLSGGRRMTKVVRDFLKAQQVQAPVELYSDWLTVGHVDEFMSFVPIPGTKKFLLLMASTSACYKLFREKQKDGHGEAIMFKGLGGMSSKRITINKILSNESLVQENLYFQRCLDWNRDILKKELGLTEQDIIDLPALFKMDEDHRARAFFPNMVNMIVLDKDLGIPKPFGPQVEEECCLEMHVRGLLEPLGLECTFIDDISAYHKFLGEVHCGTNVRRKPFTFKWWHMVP
# assaySummary: Binding affinity to human PAD2 expressed in HEK293T cells assessed as protein occupancy at 25 uM preincubated for 15 mins followed by ionomycin addition measured after 1 hr in presence of CaCl2 by RIBFA probe based SDS-PAGE analysis relative to control
# Type: cell-based

// below: answered compounds
| chemSmiles | targetUnderTest | Activity |
| --- | --- | --- |
| COc1ccc2c(c1)nc([C@H](CCCNC(=N)CF)NC(=O)c1cccc3c1C(=O)NC3)n2C | UniProt:Q9Y2J8 | > 60% |
| CCn1c([C@H](CCCNC(=N)CF)NC(=O)c2cccc3c2C(=O)NC3)nc2c(OC)cccc21 | UniProt:Q9Y2J8 | > 60% |
| CCOc1cccc2c1nc([C@H](CCCNC(=N)CF)NC(=O)c1cccc3c1C(=O)NC3)n2C | UniProt:Q9Y2J8 | > 60% |
| COc1cccc2c1nc([C@H](CCCNC(=N)CF)NC(=O)c1cccc3c1C(=O)N(C)C3)n2C | UniProt:Q9Y2J8 | < 37% |
| COc1cccc2c1nc([C@H](CCCNC(=N)CF)NC(=O)c1cccc3c1C(=O)N(C1CC1)C3)n2C | UniProt:Q9Y2J8 | < 37% |
| COc1cccc2c1nc([C@H](CCCNC(=N)CF)NC(=O)c1cccc3c1C(=O)NC3)n2C | UniProt:Q9Y2J8 | > 60% |

Request: Hello, please tell me recorded Activity for this one: COc1cccc2c1nc([C@H](CCCNC(=N)CF)NC(=O)c1cccc3c1C(=O)N(C(C)C)C3)n2C
Response: < 37%

Request: Hello, please tell me recorded Activity for this one: CCN1Cc2cccc(C(=O)N[C@@H](CCCNC(=N)CF)c3nc4c(OC)cccc4n3C)c2C1=O
Response: < 37%

---

# targetUnderTest: UniProt:Q9Y2J8
# assaySummary: Binding affinity to human PAD2 expressed in HEK293T cells assessed as protein occupancy preincubated for 15 mins followed by ionomycin addition measured after 1 hr in presence of CaCl2 by RIBFA probe based SDS-PAGE analysis
# Type: cell-based
measureName: EC50 (µM)

| chemSmiles | EC50 / µM |
| --- | --- |
| COc1cccc2c1nc([C@H](CCCNC(=N)CF)NC(=O)c1cccc3c1C(=O)NC3)n2C | 9.5 |
| COc1ccc2c(c1)nc([C@H](CCCNC(=N)CF)NC(=O)c1cccc3c1C(=O)NC3)n2C | 5.9 |

P = CCOc1cccc2c1nc([C@H](CCCNC(=N)CF)NC(=O)c1cccc3c1C(=O)NC3)n2C
Q = N=C(CF)NCCC[C@H](NC(=O)c1ccc(-c2ccccc2)cc1)c1nc2ccccc2[nH]1
Request: Could you kindly indicate whether P or Q has the higher EC50 value? # reply format: chosen label
Response: Q
(Q: 20.6 µM, P: 8.3 µM)
